target: Recombinant human FGFR2 (Homo sapiens); experiment: Transcreener Kinase Assay of FGFR2; type: biochemical; conditions: read-out: FGFR2 (FP) IC50
Sequence (P21802 22-821): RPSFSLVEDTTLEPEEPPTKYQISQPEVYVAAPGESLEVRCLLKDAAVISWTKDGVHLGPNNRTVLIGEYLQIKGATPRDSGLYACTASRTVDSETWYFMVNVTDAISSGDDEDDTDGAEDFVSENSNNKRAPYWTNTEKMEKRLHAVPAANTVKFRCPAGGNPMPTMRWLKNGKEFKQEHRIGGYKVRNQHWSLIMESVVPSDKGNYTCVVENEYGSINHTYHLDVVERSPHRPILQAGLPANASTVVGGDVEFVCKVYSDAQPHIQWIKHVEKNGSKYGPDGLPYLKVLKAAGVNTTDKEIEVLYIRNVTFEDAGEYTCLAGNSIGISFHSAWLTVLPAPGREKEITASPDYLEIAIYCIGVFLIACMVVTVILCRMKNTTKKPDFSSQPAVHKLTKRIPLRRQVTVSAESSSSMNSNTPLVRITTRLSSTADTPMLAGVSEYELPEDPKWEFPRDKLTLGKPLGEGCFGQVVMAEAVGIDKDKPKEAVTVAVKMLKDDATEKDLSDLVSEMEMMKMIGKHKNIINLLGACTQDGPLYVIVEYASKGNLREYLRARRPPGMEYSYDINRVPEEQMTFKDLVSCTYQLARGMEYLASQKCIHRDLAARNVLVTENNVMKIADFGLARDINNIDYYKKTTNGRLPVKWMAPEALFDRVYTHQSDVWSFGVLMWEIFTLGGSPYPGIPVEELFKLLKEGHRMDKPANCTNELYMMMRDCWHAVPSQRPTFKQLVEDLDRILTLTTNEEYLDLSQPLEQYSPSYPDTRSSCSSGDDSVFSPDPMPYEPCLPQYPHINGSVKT
pIC50: −log10 of the molar value.
# pIC50 values compiled below
assay-endpoint: pIC50

structure_as_smiles=CNC(=O)c1cc(CCc2cnc(Nc3cnn([C@@H]4CCOC4)c3)nc2)c(F)c(OC)c1 assay_endpoint=pIC50 test_value=8.15
structure_as_smiles=CNC(=O)c1cc(CCc2cnc(Nc3ccc(N4CCN(C)CC4)c(OC)c3)nc2)c(Cl)c(OC)c1 assay_endpoint=pIC50 test_value=8.30
structure_as_smiles=CNC(=O)c1cc(COc2cnc(Nc3ccc(N4CCC(N(C)C)CC4)cc3)nc2)c(F)c(OC)c1 assay_endpoint=pIC50 test_value=8.30
structure_as_smiles=CCN(CC)CCOc1ccc(Nc2ncc(OCc3cc(C(=O)NC)cc(OC)c3F)cn2)cc1 assay_endpoint=pIC50 test_value=7.70
structure_as_smiles=CNC(=O)c1cc(COc2cnc(Nc3cccc(-n4ccnn4)c3)nc2)c(Cl)c(OC)c1 assay_endpoint=pIC50 test_value=8.40
structure_as_smiles=CNC(=O)c1cc(COc2cnc(Nc3ccc(N4C[C@@H](C)N(C)[C@@H](C)C4)cc3)nc2)c(F)c(OC)c1 assay_endpoint=pIC50 test_value=8.22
structure_as_smiles=CCN1CCN(c2ccc(Nc3ncc(CCc4cc(C(=O)NC)cc(OC)c4F)cn3)cc2OC)CC1 assay_endpoint=pIC50 test_value=8.30
structure_as_smiles=CNC(=O)c1cc(COc2cnc(Nc3cnc(N4C[C@@H](C)N[C@@H](C)C4)nc3)nc2)c(Cl)c(OC)c1 assay_endpoint=pIC50 test_value=7.64
structure_as_smiles=CNC(=O)c1cc(COc2cnc(Nc3ccc(C4CCNCC4)cc3)nc2)c(F)c(OC)c1 assay_endpoint=pIC50 test_value=7.80
structure_as_smiles=CNC(=O)c1cc(COc2cnc(Nc3ccc(-n4cncn4)cc3)nc2)c(F)c(OC)c1 assay_endpoint=pIC50 test_value=7.96
structure_as_smiles=CNC(=O)c1cc(COc2cnc(Nc3ccc(C4CCNCC4)nc3)nc2)c(F)c(OC)c1 assay_endpoint=pIC50 test_value=7.85
structure_as_smiles=CNC(=O)c1cc(COc2cnc(Nc3ccc(N4CCN(C)CC4)c(OC)c3)nc2)c(F)c(OC)c1 assay_endpoint=pIC50 test_value=8.15
structure_as_smiles=CNC(=O)c1cc(CCc2cnc(Nc3cnn([C@H]4CCOC4)c3)nc2)c(F)c(OC)c1 assay_endpoint=pIC50 test_value=8.30
structure_as_smiles=CNC(=O)c1cc(COc2cnc(Nc3cnn(C[C@@H](O)CO)c3)nc2)c(F)c(OC)c1 assay_endpoint=pIC50 test_value=8.00
structure_as_smiles=CCN(CC)CCn1cc(Nc2ncc(OCc3c(F)c(OC)cc(C(=O)NC)c3F)cn2)cn1 assay_endpoint=pIC50 test_value=7.64
